Target: Kappa-type opioid receptor (Cavia porcellus)
Experiment: Compound was tested for the binding affinity and selectivity by competitive inhibition of radioligands on opioid kappa receptor in guinea pig brain membranes
Format: cell membranes, Membrane
experimental_readout: Ki (nM)
Numbers only, in nM.

Ki for CN(C(=O)Cc1ccc(Cl)c(Cl)c1)[C@H](CN1CCCC1)c1cccc(NC(=O)[C@@H](N)CC(=O)O)c1 is 0.34

###

Here we list compounds with their recorded pKi when tested on Mu-type opioid receptor (Cavia porcellus).
Give bare numbers, as −log10 of the molar value.

In [3]: df
Out[3]:
                    structure_smiles_string                         system_under_test  experimental_readout  numeric_readout
0  CN(C(=O)Cc1ccc(Cl)c(Cl)c1)[C@H](CN1CCCC1)c1cccc(NC(=O)[C@@H](N)CC(=O)O)c1  Mu-type opioid receptor (Cavia porcellus)                   pKi             6.34

Mu-type opioid receptor (Cavia porcellus) assay, compound CN(C(=O)Cc1ccc(Cl)c(Cl)c1)[C@H](CN1CCCC1)c1cccc(NC(=O)[C@H](N)CC(=O)O)c1 , recorded pKi = 6.55
